Just for reference, patent US20240166765A1 is where these values come from.

target: T1, human Tissue Factor on MDA-MB-231 cells (human, UniProt P13726 33-295); assay: flow cytometry, MDA-MB-231 cells; binding of 20 nM FVII-Fc-Alexa488 (competitor) left at 83 nM Ab
T1 construct: also called TF; hTF
Kindly state % FVIIa for each of the entries shown.
Write down the numeric answer in % and omit the unit.

Entry under test: 54E (antibody, V domains shown, Human anti-TF IgG1) VH: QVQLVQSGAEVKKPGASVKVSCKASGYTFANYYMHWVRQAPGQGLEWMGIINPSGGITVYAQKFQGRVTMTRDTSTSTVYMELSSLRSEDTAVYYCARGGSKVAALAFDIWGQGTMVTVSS VL: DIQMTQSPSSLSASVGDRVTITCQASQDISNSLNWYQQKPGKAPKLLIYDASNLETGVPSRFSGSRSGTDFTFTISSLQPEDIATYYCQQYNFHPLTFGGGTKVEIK . Its % FVIIa was 3

Entry under test: 25A (antibody, V domains shown, Human anti-TF IgG1) VH: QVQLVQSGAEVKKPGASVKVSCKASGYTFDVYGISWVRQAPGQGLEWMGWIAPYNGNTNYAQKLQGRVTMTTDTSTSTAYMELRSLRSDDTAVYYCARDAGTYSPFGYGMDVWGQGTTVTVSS VL: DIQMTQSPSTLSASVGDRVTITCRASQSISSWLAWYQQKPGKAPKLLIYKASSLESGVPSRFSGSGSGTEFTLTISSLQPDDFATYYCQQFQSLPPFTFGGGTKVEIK . Its % FVIIa was 97

Entry under test: 25G (antibody, human IgG1, kappa, V domains shown, Human anti-TF IgG1) VH: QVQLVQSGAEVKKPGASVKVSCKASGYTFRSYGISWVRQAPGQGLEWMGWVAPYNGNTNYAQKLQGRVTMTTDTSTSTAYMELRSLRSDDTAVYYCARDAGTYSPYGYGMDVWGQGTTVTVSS VL: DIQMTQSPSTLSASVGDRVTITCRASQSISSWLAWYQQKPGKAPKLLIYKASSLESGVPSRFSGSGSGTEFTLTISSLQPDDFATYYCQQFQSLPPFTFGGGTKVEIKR . Its % FVIIa was 93

Entry under test: 39A (antibody, V domains shown, Human anti-TF IgG1) VH: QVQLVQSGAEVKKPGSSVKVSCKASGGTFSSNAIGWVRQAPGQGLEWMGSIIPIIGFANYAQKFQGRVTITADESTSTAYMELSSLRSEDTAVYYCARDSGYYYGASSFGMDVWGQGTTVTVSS VL: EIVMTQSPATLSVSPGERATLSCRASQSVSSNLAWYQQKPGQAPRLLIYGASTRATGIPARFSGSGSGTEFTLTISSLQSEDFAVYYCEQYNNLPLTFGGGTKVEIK . Its % FVIIa was 2
